# target or system: HLA-A*0201 (human)
# assay notes: inhibition of binding of 125I-labelled standard peptide to purified HLA, gel filtration
# condition context: remark: other sources report otherwise
readout name: relative binding ratio (IC50 of standard peptide / IC50 of test peptide)
When you answer, write just the number.

>  <binder>
DLLMGTLGIV (modifications not checked) [HPV16 E7 peptide … (position 81, 10 amino acids)]

>  <number>
0.0005

$$$$
>  <binder>
MLDLQPETT (modifications not checked) [HPV16 E7 peptide … (position 12, 9 amino acids)]

>  <number>
0.0028

$$$$
>  <binder>
MLDLQPET (modifications not checked) [HPV16 E7 peptide MLDLQPET (position 12, 8 amino acids)]

>  <number>
0.0001

$$$$
>  <binder>
RLCVQSTHV (modifications not checked) [HPV16 E7 peptide … (position 66, 9 amino acids)]

>  <number>
0.0003

$$$$

// moving on: another record for relative binding ratio (IC50 of standard peptide / IC50 of test peptide)
relative binding ratio (IC50 of standard peptide / IC50 of test peptide) reported for this binder RTLEDLLMGT (modifications not checked) [HPV16 E7 peptide … (position 77, 10 amino acids)] : 0.0006
